- System: SNB-19 CNS
- METHOD: NCI tumour cell line growth inhibition, 48 h
REPORTED_PROPERTY: TGI

// below: answered molecules
COc1cc(-c2oc(=O)ccc2C#Cc2ccccn2)cc(OC)c1OC
> 76.1 µM
COc1ccc(C2SC(N)=Nc3c2c(C)nn3C(=O)c2ccncc2)cc1OC (centres undefined)
> 10 µM
COc1cc(OCc2cccc(-c3ccc(C(O)c4nccs4)cc3)c2C)cc(OC)c1C=O (centres undefined)
13.4 µM
CN(C)c1ccc(/C=c2/c3ccccc3n3c2c2c([n+]3C)CCCC2)cc1
6.68 µM
CCCCCCCCCCCCCC(=O)OCC(C[As](=O)(O)O)OC(=O)CCCCCCCCCCCCC (centres undefined)
> 100 µM

# input Please give the documented TGI of CCN(CC)CCNc1ccc2nnn3c4ccc(OCCN(CC)CC)cc4c(=O)c1c23
# output > 100 µM

# input Please give the documented TGI of COC[C@@H](N=CC(C)(C)C)C(C)C
# output > 100 µM

# input Please give the documented TGI of CCCCOC(=O)CNC(=O)OC/C=C/C#CC#C/C=C/COC(=O)NCC(=O)OCCCC
# output > 100 µM

====

- Tested on: CCRF-CEM leukemia
- METHOD: NCI tumour cell line growth inhibition, 48 h
Some compounds, each annotated with its measured GI50.

# input Please give the documented GI50 of CO/N=C(/C)c1cccc(Nc2cc(-n3nnc4ccccc43)nc3ccccc23)c1
# output 20700 nM

====

Some compounds, each annotated with its measured TGI.
- Tested on: SF-295 CNS
- METHOD: NCI tumour cell line growth inhibition, 48 h

# input Please give the documented TGI of CC(=O)N=C1N(/C=C2\C(=O)Oc3ccccc3C2=O)C(=O)/C(=C/c2cccc(Cl)c2Cl)N1C
# output > 100 µM

====

- Test system: HS 578T breast
- METHOD: NCI tumour cell line growth inhibition, 48 h; in the data active means GI50 below about 0.43 µM; inactive means the rest
Pick from yes for active, no for inactive when you respond.

COC(=O)c1ccc2c(c1)nc(NC(=O)c1ccccc1)n2CCCc1ccccc1
no
NS(=O)(=O)c1ccc(/C=C/c2ccc(O)c(O)c2)cc1
no
N#Cc1c(NC(=O)NCc2ccccc2)sc2c1CCCCC2
yes
Cc1cc(Nc2ccc(NC(=O)c3ccc(Nc4ccnc5ccccc45)cc3)cc2)nc(N)n1
no

# input Tell me the recorded outcome of this test for COc1cc(OCc2cccc(-c3ccc(C(O)c4nccs4)cc3)c2C)cc(OC)c1C=O (configuration not stated) .
# output no

# input Tell me the recorded outcome of this test for COc1cc(-c2oc(=O)ccc2C#Cc2ccccn2)cc(OC)c1OC .
# output no

# input Tell me the recorded outcome of this test for CC1(C)N=C(N)N=C(N)N1c1ccc(CCCCc2ccc(Cl)cc2S(=O)(=O)F)c(Cl)c1 .
# output no

====

Some molecules, each annotated with its measured TGI.
- Tested on: MOLT-4 leukemia
- METHOD: NCI tumour cell line growth inhibition, 48 h

// below: answered molecules
BrC1=C(Br)C2(SCCS2)[C@H]2C[C@@H]1c1ccccc12
> 100 µM
O=C(Nc1ccc(Nc2ccncc2)cc1)c1ccc([N+](=O)[O-])cc1
> 33.3 µM
O=C1Sc2cc3ccccc3cc2C(=O)Sc2ccc(Br)cc21
> 31.6 µM

# input Please give the documented TGI of O=C(CCN(C(=O)O)S(=O)(=O)c1ccc(NC(=O)c2ccccc2)cc1)Nc1ccccc1
# output > 85.3 µM

# input Please give the documented TGI of O=C1CCC(Cl)=CC2CCCN12 (stereo not drawn)
# output > 100 µM

# input Please give the documented TGI of O=C1/C(=C/c2ccc(Br)s2)NC(=S)N1c1ccccc1
# output > 100 µM

# input Please give the documented TGI of CC(C)CCC1CC2C(=O)N(c3ccccc3)C(=O)C2c2[nH]c3ccccc3c21 (stereo not drawn)
# output 17.3 µM

# input Please give the documented TGI of N#CC1C(=S)NC(c2ccccc2)=CC12CCCCC2 (stereo not drawn)
# output 53.2 µM

# input Please give the documented TGI of O=[N+]([O-])c1cccc(C2=NN(c3ccccc3)C[N+](c3ccc(Br)cc3)=N2)c1
# output > 100 µM

# input Please give the documented TGI of OC(CC1SCCCS1)c1ccccc1 (stereo not drawn)
# output > 100 µM

# input Please give the documented TGI of COc1cccc(C2CC(C)(O)Oc3cc4c(cc32)OCO4)c1O (stereo not drawn)
# output > 94.3 µM

====

- Tested on: LOX IMVI melanoma
- METHOD: NCI tumour cell line growth inhibition, 48 h
Some compounds, each annotated with its measured TGI.

// below: answered compounds
CCOC(=O)C1=CN(C)C=C(C(=O)OCC)C1c1cc(Br)c(OCC)c(OC)c1
> 100 µM
O=c1oc2ccc3ccccc3c2cc1-c1nc2ccccc2s1
> 100 µM

Please examine the following record next.
# input Please give the documented TGI of N#Cc1c(NC(=O)NCc2ccccc2)sc2c1CCCCC2
# output > 100 µM

====

- Tested on: LOX IMVI melanoma
- METHOD: NCI tumour cell line growth inhibition, 48 h
Some molecules, each annotated with its measured TGI.

// below: answered molecules
C=CCn1c(N)c(C#N)c(C#N)c1-c1ccccc1
> 100 µM
CC1=C(C(=O)Nc2ccc(F)c(Cl)c2)C(c2ccccc2O)NC(=S)N1 (centres undefined)
> 50 µM
O=C(Nc1ccc2ncccc2c1)Nc1ccc2ncccc2c1
> 100 µM
NC(N)=N/N=C/c1c(-c2ccsc2)nc2sccn12
33.2 µM
CC(C)(C)OC(=O)N(CCCCN(CCCNC(=O)C(F)(F)F)C(=O)OC(C)(C)C)CCCNC(=O)C(F)(F)F
> 100 µM

# input Please give the documented TGI of Cc1ccc(S(=O)(=O)Nc2ccccc2C=O)cc1
# output 27.5 µM

====

- Tested on: CAKI-1 renal
- METHOD: NCI tumour cell line growth inhibition, 48 h
REPORTED_PROPERTY: GI50

COC(=O)COc1ccccc1/C=C1\N=C(c2ccccc2)N(c2cc(C(F)(F)F)ccc2Cl)C1=O
79 µM
CSC1=Nc2c(c(C)c(C)n2COC(CO)CO)C2=NC(=O)C(C)N12 (stereo not drawn)
> 100 µM
CC[As](CC)SC[C@H](C)C(=O)N1CCC[C@H]1C(=O)O
< 0.0181 µM
Cc1cc(Cl)cc(OCCn2cc(F)cn2)c1-c1nc(N)nc2c1CN(C(=O)NCC(C)(F)F)C2
0.755 µM
CCN1CCN(C(=O)[C@@]2(C)CC[C@]3(C)CC[C@]4(C)C(=CC(=O)[C@@H]5[C@@]6(C)CC[C@H](OC7C[C@@H](O)[C@@H](O)C(C)O7)C(C)(C)[C@@H]6CC[C@]54C)[C@@H]3C2)CC1 (stereo partly drawn)
7.81 µM
COC(=O)c1ccc2c(c1)nc(NC(=O)c1ccccc1)n2CCCc1ccccc1
3.57 µM
COc1cccc(F)c1C(=O)c1cnc(NC2CCN(S(C)(=O)=O)CC2)nc1N
3.4 µM

Please examine the following record next.
# input Please give the documented GI50 of COC(=O)C[C@](O)(CCCC(C)(C)O)C(=O)O[C@@H]1C(OC)=C[C@]23CCCN2CCc2cc4c(cc2[C@H]13)OCO4
# output 0.252 µM

====

Some molecules, each annotated with its measured GI50.
- System: MOLT-4 leukemia
- METHOD: NCI tumour cell line growth inhibition, 48 h

// below: answered molecules
N#Cc1c(N)nc(N2CCOCC2)c(C#N)c1-c1ccncc1
> 100 µM
c1ccc(-c2nnc(-c3ccccn3)s2)nc1
> 100 µM

# input Please give the documented GI50 of N.N.N.N.O=C([O-])CCl.O=C([O-])CCl.[Co+3].[O-][Cl+3]([O-])([O-])[O-]
# output > 100 µM

# input Please give the documented GI50 of CCOC(=O)C1=CN(C)C=C(C(=O)OCC)C1c1cc(Br)c(OCC)c(OC)c1
# output > 100 µM

# input Please give the documented GI50 of COc1cc(C(=O)N2CCN(C=O)C2=S)cc(OC)c1OC
# output 29.4 µM

# input Please give the documented GI50 of O=C(Nc1ccc(Nc2ccncc2)cc1)c1ccc([N+](=O)[O-])cc1
# output 3.3 µM

# input Please give the documented GI50 of CCN1CCN(C(=O)[C@@]2(C)CC[C@]3(C)CC[C@]4(C)C(=CC(=O)[C@@H]5[C@@]6(C)CC[C@H](OC7C[C@@H](O)[C@@H](O)C(C)O7)C(C)(C)[C@@H]6CC[C@]54C)[C@@H]3C2)CC1 (stereo partly drawn)
# output 1.18 µM

# input Please give the documented GI50 of NS(=O)(=O)c1ccc(/C=C/c2ccc(O)c(O)c2)cc1
# output 12.8 µM

====

- Tested on: SK-MEL-2 melanoma
- METHOD: NCI tumour cell line growth inhibition, 48 h
Some molecules, each annotated with its measured TGI.

// below: answered molecules
COC(=O)c1ccc(/C=C/c2cc(O)ccc2O)cc1
> 31.6 µM
CCOC(=O)Nc1[nH]cc(-c2ccccc2)c1C#N
> 100 µM

Please examine the following record next.
# input Please give the documented TGI of CC1=C(C)CC2C(=O)N(c3cc(C(C)(C)C)ccc3C(C)(C)C)C(=O)C2C1 (stereo not drawn)
# output > 100 µM
